- STUDY_TARGET: H1047R PIK3CA enzyme (Homo sapiens, UniProt P42336, H1047R)
- Sequence (P42336 whole entry H1047R): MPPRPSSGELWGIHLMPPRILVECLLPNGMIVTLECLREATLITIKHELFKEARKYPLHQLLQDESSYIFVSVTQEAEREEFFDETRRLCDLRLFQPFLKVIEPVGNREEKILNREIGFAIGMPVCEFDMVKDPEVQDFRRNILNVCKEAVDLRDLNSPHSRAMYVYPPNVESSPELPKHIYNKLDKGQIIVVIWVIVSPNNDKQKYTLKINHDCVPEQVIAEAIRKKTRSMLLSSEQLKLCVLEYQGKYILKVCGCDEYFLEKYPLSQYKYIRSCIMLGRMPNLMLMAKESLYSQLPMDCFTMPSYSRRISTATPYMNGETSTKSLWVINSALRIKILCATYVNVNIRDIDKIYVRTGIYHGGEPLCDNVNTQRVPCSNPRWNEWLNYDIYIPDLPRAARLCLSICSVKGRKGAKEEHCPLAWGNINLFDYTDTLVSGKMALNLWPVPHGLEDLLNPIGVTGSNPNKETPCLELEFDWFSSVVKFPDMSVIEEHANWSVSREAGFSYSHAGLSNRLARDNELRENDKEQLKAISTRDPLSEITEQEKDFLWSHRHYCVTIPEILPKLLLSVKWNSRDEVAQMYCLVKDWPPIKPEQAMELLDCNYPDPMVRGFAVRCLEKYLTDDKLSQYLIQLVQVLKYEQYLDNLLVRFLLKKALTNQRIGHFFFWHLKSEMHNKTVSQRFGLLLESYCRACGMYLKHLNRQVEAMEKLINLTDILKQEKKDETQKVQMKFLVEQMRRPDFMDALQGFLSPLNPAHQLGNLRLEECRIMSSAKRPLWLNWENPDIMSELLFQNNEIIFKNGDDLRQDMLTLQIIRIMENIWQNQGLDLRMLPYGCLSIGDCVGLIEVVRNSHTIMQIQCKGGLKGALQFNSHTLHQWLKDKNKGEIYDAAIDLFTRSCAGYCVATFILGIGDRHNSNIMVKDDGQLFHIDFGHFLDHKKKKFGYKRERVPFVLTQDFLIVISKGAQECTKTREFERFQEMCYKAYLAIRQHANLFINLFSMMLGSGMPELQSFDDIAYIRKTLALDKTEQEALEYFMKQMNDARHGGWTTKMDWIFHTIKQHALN
- Sequence (P27986 whole entry partner): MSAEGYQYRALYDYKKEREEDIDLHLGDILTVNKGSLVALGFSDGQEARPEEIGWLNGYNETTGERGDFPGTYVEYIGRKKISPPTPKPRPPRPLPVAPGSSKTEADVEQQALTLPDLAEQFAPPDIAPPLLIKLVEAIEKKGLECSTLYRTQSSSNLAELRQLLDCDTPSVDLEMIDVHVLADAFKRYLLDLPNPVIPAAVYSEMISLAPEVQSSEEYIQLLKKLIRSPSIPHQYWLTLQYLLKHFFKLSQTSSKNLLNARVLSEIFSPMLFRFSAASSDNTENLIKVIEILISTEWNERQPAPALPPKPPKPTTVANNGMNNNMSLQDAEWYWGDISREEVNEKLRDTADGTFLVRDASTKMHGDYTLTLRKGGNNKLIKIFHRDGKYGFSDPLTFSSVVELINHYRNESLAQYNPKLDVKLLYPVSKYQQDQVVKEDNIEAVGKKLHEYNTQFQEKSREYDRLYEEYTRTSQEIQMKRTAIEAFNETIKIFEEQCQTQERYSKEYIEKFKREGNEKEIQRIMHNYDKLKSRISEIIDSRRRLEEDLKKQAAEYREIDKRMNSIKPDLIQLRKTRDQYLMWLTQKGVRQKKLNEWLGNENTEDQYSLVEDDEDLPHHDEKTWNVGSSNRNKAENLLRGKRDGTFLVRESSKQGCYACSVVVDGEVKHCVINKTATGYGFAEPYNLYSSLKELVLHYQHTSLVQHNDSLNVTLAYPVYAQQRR
- EXPERIMENT_NOTES: ADP-Glo Biochemical PIK3CA Kinase Assay
IC50: recorded values

INSERT INTO measurements (compound, study_target, value_type, result) VALUES
  ('O=C(Nc1cc(-c2ccc3ncnn3c2)nc2c1C(C1CCCC1)NC2=O)c1cc(F)cc(C(F)(F)F)c1 (stereo not shown) [Compound I-1654]', 'H1047R PIK3CA enzyme (Homo sapiens, UniProt P42336, H1047R)', 'IC50', '10000 to 100000 nM'),
  ('COc1cnccc1-c1cc(NC(=O)c2cc(F)cc(C(F)(F)F)c2)c2c(c1)C(=O)NC2c1cc(F)ccc1Cl (stereo not shown) [Compound I-1219]', 'H1047R PIK3CA enzyme (Homo sapiens, UniProt P42336, H1047R)', 'IC50', '≤ 100 nM'),
  ('N#Cc1cc(NC(=O)N2CC(O)(C(F)(F)F)c3cc(F)ccc32)c2c(c1)C(=O)NC2c1cc(F)ccc1Cl (stereo not shown) [Compound I-2469]', 'H1047R PIK3CA enzyme (Homo sapiens, UniProt P42336, H1047R)', 'IC50', '≤ 100 nM');

# input // lookup IC50 for O=C(Nc1cc(-c2ccccc2S(=O)(=O)F)cc2c1C(c1cc(F)ccc1Cl)NC2=O)c1cc(F)cc(C(F)(F)F)c1 (stereo not shown) [Compound I-1264]
# output ≤ 100 nM

Where these numbers come from: patent US12581252B2
